systemTested: human importin α1 lacking the IBB domain (IMPα1ΔIBB) (human, UniProt P52292 70-529)
methodNotes: native gel or EMSA; 1.5% agarose gel in TB buffer (0.45 mM tris, 0.45 mM boric acid, pH 8.5), 70 V for 2 h; IMPαΔIBB ± FITC-cNLS peptide; UV image for the peptide, Coomassie for the protein
conditionDescription: both partners purified
Primed or numbered codes have the meaning given here. Where no end group is shown, it is not given here. FITC′ = fluorescein isothiocyanate; Ahx = NCCCCCC(=O)O

binder: {FITC′-Ahx}-KRSAPEEEPSCSQATPPKKKHA (also called KIPyV LTA cNLS; KIPyV LTA bipartite cNLS) [KIPyV LTA NLSbip peptide]
binding result: binds
--
binder: {FITC′-Ahx}-KRKFPDSSTQNSTPPKKNKPA (also called STLPyV LTA cNLS; STLPyV LTA bipartite cNLS) [STLPyV LTA NLSbip peptide]
binding result: binds
--
binder: {FITC′-Ahx}-PKKRPRESSSNSTCTPPKRPRNF (also called MWPyV LTA cNLS; MWPyV LTA bipartite cNLS) [MWPyV LTA NLSbip peptide]
binding result: binds
--
binder: {FITC′-Ahx}-PFSRKRKFGGSRSSASSASSASFTSTPPKPKKNRE (also called MCPyV LTA cNLS; bipartite MCPyV LTA NLS; source: synthetic peptide (solid phase, HPLC purified)) [MCPyV LTA NLSbip peptide]
binding result: binds
--
binder: {FITC′-Ahx}-KRTREDDEEPQCSQATPPKKKKD (also called WUPyV LTA cNLS; WUPyV LTA bipartite cNLS) [WUPyV LTA NLSbip peptide]
binding result: binds
